Target: T1, mUHRF1 V1 R-S* (R298A/N299A/T300A/G301A/K302A/S303A), full-length (mouse, UniProt Q8VDF2-1 1-782, R298A | N299A | T300A | G301A | K302A | S303A)
T1 construct: UHRF1, mouse, splicing variant V1, NCBI NP_001104550.1, with six alanine substitutions in Linker 2; source: E. coli BL21(DE3) RIL, purified (HisPur Cobalt-Resin)
T1 sequence (looked up): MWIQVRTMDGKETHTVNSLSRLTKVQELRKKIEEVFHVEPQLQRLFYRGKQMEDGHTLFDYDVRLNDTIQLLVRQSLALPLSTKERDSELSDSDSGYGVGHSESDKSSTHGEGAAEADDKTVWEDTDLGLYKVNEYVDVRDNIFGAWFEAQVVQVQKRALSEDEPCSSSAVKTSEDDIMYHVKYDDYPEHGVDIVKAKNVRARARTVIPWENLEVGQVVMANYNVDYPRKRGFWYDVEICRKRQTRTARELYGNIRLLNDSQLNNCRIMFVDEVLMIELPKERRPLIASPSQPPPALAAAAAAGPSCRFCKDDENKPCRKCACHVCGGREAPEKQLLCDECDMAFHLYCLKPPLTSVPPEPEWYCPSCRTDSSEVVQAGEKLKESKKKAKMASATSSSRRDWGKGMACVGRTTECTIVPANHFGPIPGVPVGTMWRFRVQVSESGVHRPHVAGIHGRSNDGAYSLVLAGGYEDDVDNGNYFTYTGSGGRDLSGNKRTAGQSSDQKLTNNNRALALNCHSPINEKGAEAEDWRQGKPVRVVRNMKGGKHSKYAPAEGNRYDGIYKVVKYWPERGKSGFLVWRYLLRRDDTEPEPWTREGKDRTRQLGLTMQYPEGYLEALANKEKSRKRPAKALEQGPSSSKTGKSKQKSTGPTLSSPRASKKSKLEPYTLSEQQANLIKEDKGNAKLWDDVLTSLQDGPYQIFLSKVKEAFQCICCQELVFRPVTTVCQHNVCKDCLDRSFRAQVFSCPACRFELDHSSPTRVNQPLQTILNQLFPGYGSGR
Experiment: fluorescence polarisation; FAM-labelled H3(1-15) peptide, recombinant protein titrated; RT; as described (ref. 28)
Details: both partners purified
Readout: pKd
A value of pKd is the negative decimal logarithm of a concentration given in moles per litre.

Value of measured pKd for the entry ARTKQTARKSTGGKA (fluorescein (FAM) on the N-terminus; K9 trimethylated, histone H3 aa 1-15; also called FAM-H3K9me3; source: synthetic peptide (Synpeptide Co., Ltd)) [FAM-H3(1-15)K9me3 peptide (N-terminally fluorescein-labelled)] : 4.95
